Tested on: T47D (PIK3CA H1047R) cells
Experiment: PS473 AKT assay in T47D (PIK3CA H1047R) cells
Format: cell-based
Conditions: Homo sapiens, pSer473 AKT, DMEM with 2.5% FBS, compound treatment 2 h, read-out: T47D_IC50
The following molecules are listed with their measured IC50 values.

{"columns": ["Molecule", "IC50"],
 "data": [
  ["Cc1cc(C(C)Nc2ccc(Cl)nc2C(=O)O)c2nc3n(c(=O)c2c1)CCc1ccccc1-3 (centres unmarked) [Example 5]", "< 1000 nM"],
  ["Cc1cc(C(C)Nc2ccc(C)nc2C(=O)O)c2nc3n(c(=O)c2c1)CCc1ccccc1-3 (centres unmarked) [Example 4]", "< 1000 nM"],
  ["CCN1CCn2c1nc1c(C(C)Nc3ccc(Cl)nc3C(=O)O)cc(C)cc1c2=O (centres unmarked) [Example 2]", "< 1000 nM"],
  ["Cc1cc(C(C)Nc2ccccc2C(=O)O)c2nc3n(c(=O)c2c1)CCc1ccccc1-3 (centres unmarked) [Example 3]", "< 1000 nM"],
  ["CCN1CCn2c1nc1c(C(C)Nc3ccccc3C(=O)O)cc(C)cc1c2=O (centres unmarked) [Example 1]", "1000 to 5000 nM"]
]}

Values from patent US20260226059A1
